# Lookup of reported inhibition at 330 µM keyed by entry
Biological target: Aβ1-42 (Homo sapiens, UniProt P05067)
Construct: Aβ1-42 lyophilized powder (Bachem) was reconstituted in hexafluoroisopropanol (HFIP) to 1 mM; purchased Bachem
Sequence (P05067 672-713 limits assumed): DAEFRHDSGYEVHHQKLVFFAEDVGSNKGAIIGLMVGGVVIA
Experiment: Thioflavin T spectrofluorescence assay: inhibition of Aβ1-42 aggregation
Assay type: biochemical
Details: 24 h
Protocol: The objective of this example was to evaluate the capacity of the compounds of the invention to inhibit the aggregation of (Aβ)1-42 peptide and to disaggregate pre-aggregated Aβ1-42 using a thioflavin T spectrofluorescence assay. […] Aβ1-42 peptide film was dissolved in DMSO to reach 400 μM. […] Inhibition of aggregation is expressed as mean % inhibition±1 standard deviation (SD) according to the following equation: […]
Where a name gives a salt, the structure may show the parent alone.
RECORDED METRIC: inhibition at 330 µM (%)

Cc1ccc(-c2cc(NCc3ccc(CNc4cc(-c5ccc(C)cc5)[nH]n4)cc3)n[nH]2)cc1 [Compound 1ap, dihydrochloride] ... 66.2
Clc1ccc(-c2c[nH]nc2NCCNc2n[nH]cc2-c2ccc(Cl)cc2)cc1 [Compound 1s, bishydrochloride] ... 66.6
Cc1ccc(-c2cc(NCc3cccc(CNc4cc(-c5ccc(C)cc5)[nH]n4)n3)n[nH]2)cc1 [Compound 1aq, trishydrochloride] ... 82.9
Cc1ccc(-c2cc(NCc3cccc(CNc4cc(-c5ccc(C)cc5)[nH]n4)c3)n[nH]2)cc1 [Compound 1ao, dihydrochloride] ... 72.9
c1c(NCCNc2cc(C3CC3)[nH]n2)n[nH]c1C1CC1 [Compound 1i, bishydrochloride] ... 53.6
Fc1ccc(-c2cc(NCCNc3cc(-c4ccc(F)cc4)[nH]n3)n[nH]2)cc1 [Compound 1ak, bishydrochloride] ... 74
Clc1ccc(-c2cc(NCCNc3cc(-c4ccc(Cl)cc4)[nH]n3)n[nH]2)cc1 [Compound 1f, bishydrochloride] ... 86.5
Cc1ccc(-c2cc(NCCNc3cc(-c4cccs4)[nH]n3)n[nH]2)cc1 [Compound 1ab, bishydrochloride] ... 85
c1ccc(-c2cc(NCCNc3cc(-c4ccccn4)[nH]n3)n[nH]2)nc1 ... 90.1
Cc1[nH]nc(NCCNc2n[nH]c(C)c2-c2ccccc2)c1-c1ccccc1 [Compound 1c, bishydrochloride] ... 52.7
Cc1ccc(-c2cc(NCC(C)(C)CNc3cc(-c4ccc(C)cc4)[nH]n3)n[nH]2)cc1 [Compound 1an, dihydrochloride] ... 55.9
c1csc(-c2cc(NCCNc3cc(-c4cccs4)[nH]n3)n[nH]2)c1 [Compound 1h, bishydrochloride] ... 69.9
Cc1cc(NCCNc2cc(C)[nH]n2)n[nH]1 [Compound 1a, bishydrochloride] ... 37.6
c1coc(-c2cc(NCCNc3cc(-c4ccco4)[nH]n3)n[nH]2)c1 [Compound 1m, bishydrochloride] ... 52.9
c1ccc(Cc2c[nH]nc2NCCNc2n[nH]cc2Cc2ccccc2)cc1 [Compound 1q, dihydrochloride] ... 59.2

###

target: Oregon Green labeled Aβ(1-42) (Homo sapiens); construct: DMSO-stock solutions of Oregon Green labeled Aβ(1-42) 1:1 with deionized water; experiment: FCS-assay with 5 nM Oregon Green labeled Aβ-peptide (disaggregation of preformed aggregates); assay type: biochemical; details: read-out: Percentage of the “number of peaks” value compared to the control reaction without added ligand
Counter-ions that a name gives are not always drawn.
Define the label as 1 when remaining activity at 0.2 µM is strictly less than 60% and as -1 in all remaining cases.

Clc1ccc(-c2cc(NCCNc3cc(-c4ccc(Cl)cc4)[nH]n3)n[nH]2)cc1 [Compound 1f, bishydrochloride] ... 1
Fc1ccc(-c2cc(NCCNc3cc(-c4ccc(F)cc4)[nH]n3)n[nH]2)cc1 [Compound 1ak, bishydrochloride] ... 1
c1ccc(-c2cc(NCCNc3cc(-c4ccccn4)[nH]n3)n[nH]2)nc1 ... 1
Brc1ccc(-c2cc(NCCNc3cc(-c4ccc(Br)cc4)[nH]n3)n[nH]2)cc1 [Compound 1u, bishydrochloride] ... 1
Cc1ccc(-c2cc(NCCNc3cc(-c4ccc(Cl)cc4)[nH]n3)n[nH]2)cc1 [Compound 1ae, bishydrochloride] ... 1
Cc1ccc(-c2cc(NCCNc3cc(-c4ccc(C)cc4)[nH]n3)n[nH]2)cc1 [Compound 1d, bishydrochloride] ... -1
